System: VWF
Test: Pharmacodynamic profile: ristocetin cofactor activity assay (% RICO) after i.v. administration
Assay type: in vivo, Cynomolgus monkey
Details: time % RICO first drops below threshold; i.v. bolus 2 mg/kg
# Tonset listing for each entry below
Lab note: write values as number then unit, every time.

12A2_sv1-9GS-59C2-9GS-12A2_sv1 (protein) DVQLVESGGGLVQPGGSLRLSCAASGRTFSYNPMGWFRQAPGKGRELVAAISRTGGSTYYPESVEGRFTISRDNAKRTVYLQMNSLRAEDTAVYYCAAAGVRAEQGRVRTLPSEYTFWGQGTQVTVSSGGGGSGGGSRDWDFDVFGGGTPVGGGGGGSGGGSEVQLVESGGGLVQPGGSLRLSCAASGRTFSYNPMGWFRQAPGKGRELVAAISRTGGSTYYPESVEGRFTISRDNAKRTVYLQMNSLRAEDTAVYYCAAAGVRAEQGRVRTLPSEYTFWGQGTQVTVSS : 0.079 h
12A2_sv1-AAA-12A2_sv1-9GS-59C2 (protein) DVQLVESGGGLVQPGGSLRLSCAASGRTFSYNPMGWFRQAPGKGRELVAAISRTGGSTYYPESVEGRFTISRDNAKRTVYLQMNSLRAEDTAVYYCAAAGVRAEQGRVRTLPSEYTFWGQGTQVTVSSAAAEVQLVESGGGLVQPGGSLRLSCAASGRTFSYNPMGWFRQAPGKGRELVAAISRTGGSTYYPESVEGRFTISRDNAKRTVYLQMNSLRAEDTAVYYCAAAGVRAEQGRVRTLPSEYTFWGQGTQVTVSSGGGGSGGGSRDWDFDVFGGGTPVGG : 0.074 h

Here is the next item to consider.
Exercise: Supply reported Tonset belonging to this molecule: 12A2_sv1-AAA-12A2_sv1-9GS-59C2-9GS-59C2 (protein) DVQLVESGGGLVQPGGSLRLSCAASGRTFSYNPMGWFRQAPGKGRELVAAISRTGGSTYYPESVEGRFTISRDNAKRTVYLQMNSLRAEDTAVYYCAAAGVRAEQGRVRTLPSEYTFWGQGTQVTVSSAAAEVQLVESGGGLVQPGGSLRLSCAASGRTFSYNPMGWFRQAPGKGRELVAAISRTGGSTYYPESVEGRFTISRDNAKRTVYLQMNSLRAEDTAVYYCAAAGVRAEQGRVRTLPSEYTFWGQGTQVTVSSGGGGSGGGSRDWDFDVFGGGTPVGGGGGGSGGGSRDWDFDVFGGGTPVGG
Key: 0.079 h
